- System: PPARg:RXRa 90nM:30nM, anti-RXR (NR concentration 90 nM, RXRa partner concentration 30 nM)
- test: PBM binding z-score (relative to random genomic background probes); higher = stronger binding; sequences stand for … in GC…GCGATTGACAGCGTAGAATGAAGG
quantity-kind: PBM binding z-score
Reply briefly: the number, and no unit.

Query: Would you kindly share the measured PBM binding z-score for TCTAGTTGGTCAGGGAGGTCACACACGACGGGTA ?
Response: 3.23

Query: # iterate: CAAACTAGGTCACGAAAGGTCTAAGTCGAATGAC
Response: 7.6

Query: # iterate: ACTAGCAGGCCAAGTTTGGGTCACGCAAACAAAG
Response: 0.546

Query: # iterate: TGAATGAGGGTATAAGATCAGGGAACGTTGCAAA
Response: 0.839

Query: # iterate: ATCGAAAGGCCGAGGTGAGTATAGAGAAAGGGAA
Response: -0.154

Query: # iterate: TAGCCTAGGTCATTGGGGCAGTATAGTACGCATC
Response: 3.06

Query: # iterate: AGTCAAAGTTCTGGACGAGGTAACGTAAAGCACG
Response: 0.00624

Query: # iterate: GCTGCTAGGGCAGGTTGGTCAGCTAACGGGTACG
Response: -1.1

Query: # iterate: GCTAGCAGGCCATTTGGGTAACTCAATGACGGGC
Response: -0.634

Query: # iterate: ACTAGTTGGTCAGCTGAGGTCACAGACAATTCGG
Response: 1.43

Query: # iterate: TAGCCTAGGTCATTGGGCGAGTATAGTACGCATC
Response: 1.8

Query: # iterate: GCTAGCAGGCCATTTGGGTCGCTCAATGACGGGC
Response: -0.61

Query: # iterate: CGTCCAAGCTCAAGGTCAGTGAAAGAGACTCGAA
Response: 0.792

Query: # iterate: AATACAGGGTAATCGTAGGCCAGAGTACGCACAG
Response: 0.377

Query: # iterate: ACAGACAGGTGAGTGAAGGTAACTAAGCTGGACG
Response: -0.406

----------
For each entry below, report its PBM binding z-score value.
- Tested on: RARb:RXRa (NR concentration 270 nM, RXRa partner concentration 90 nM)
- test: PBM binding z-score (relative to random genomic background probes); higher = stronger binding; sequences stand for … in GC…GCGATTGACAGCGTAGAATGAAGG
Reply briefly: the number, and no unit.

Query: Would you kindly share the measured PBM binding z-score for CCGACTGGGGCATAAGGTTACCGTAAGCCAGCCC ?
Response: 1.98

Query: # iterate: GCGACTGGGGCATCCGCAGGTTACCATAACTTAA
Response: 0.89

Query: # iterate: CCTAGTTGGTCAAGGACACACACGCTATAGGTAC
Response: 1.51

Query: # iterate: CCGAGTGGGGCAAGGTTACCATAACGCACAGCCA
Response: 1.4

Query: # iterate: CCAGACAGGTGAGAAGATAACTCAGCCTCGATTA
Response: 0.241

Query: # iterate: CCTACTGGGCCAAGGTCATTCATCAGTCAAAGCA
Response: 3.34

Query: # iterate: CCGACTGGGGCAAGGGTACCATAACGCACAGCCA
Response: 0.933

Query: # iterate: CCTCGGAGGACAGCAGGTCAGAGCTGTCCGCTTT
Response: 2.04

Query: # iterate: CCTTACGGGTCACGAGGTTATTGCACGACGAGCG
Response: 4.57

----------
- Test system: PPARg:RXRa 90nM:30nM, anti-RXR (NR concentration 90 nM, RXRa partner concentration 30 nM)
- test: PBM binding z-score (relative to random genomic background probes); higher = stronger binding; sequences stand for … in GC…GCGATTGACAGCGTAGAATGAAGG
For each entry below, report its PBM binding z-score value.

Query: Would you kindly share the measured PBM binding z-score for ACTCGGAGGACAAAGGTCAGAGCCACGCCAGTGA ?
Response: 8.08

Query: # iterate: AGAATGAGGTTATTAAGATCAGCGAATTGCGGTC
Response: 1.29

Query: # iterate: ATCTCTAGGTAAGCCTCAGTTCAGTGAAGAACGC
Response: 0.487

Query: # iterate: CCTACTGGGCTATTCAGAGGTCATTGATCATATG
Response: 1.97

Query: # iterate: GCAGACAGGTGAAACGCAGGTAACTCACGGTGGC
Response: -0.11

Query: # iterate: CCGACTGGTGCAAGGTTACCATAACGCACAGCCA
Response: 0.039

Query: # iterate: CGTTAAAGTTCAAGGTAACGTAACAGAAAGCAGC
Response: 3.27

Query: # iterate: CGTCCAAGGTCAGAGAGGTCAGAGAATGCCGAGT
Response: 3

Query: # iterate: AGTCAAAGTTCATCTAGGTAACGTTAGATATGCT
Response: 5.58

----------
- Test system: RARb homodimer (NR concentration 270 nM)
- test: PBM binding z-score (relative to random genomic background probes); higher = stronger binding; sequences stand for … in GC…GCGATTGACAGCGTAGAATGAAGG
quantity-kind: PBM binding z-score

Query: // lookup PBM binding z-score | system=RARb homodimer (NR concentration 270 nM) | key= AGTAGTTGGTCAGCTGAGGTCACACACAATTCGG
Response: 4.45

Query: # iterate: CAAACTAGGTCACAGAGGTCAAAATCCGTGCGTA
Response: 5.16

Query: # iterate: AGAATGAGGTTATTAAGATCAGGAAATTGCGGTC
Response: 0.491

Query: # iterate: CTTCCAAGGTCAGAGAGGTCAGTGAATGCCGAGT
Response: 5.27

Query: # iterate: CCTACTGGGCTAAGGTCATTGATCAGTCAAAGCA
Response: 3.59

Query: # iterate: CCTATTAGCTGACCATAAGGGCAACCGAAGCTCG
Response: 1.61

Query: # iterate: CCTCGGAGGACAACAGGAGGTCCGAGCTGCCAGA
Response: 0.279

Query: # iterate: CCTCGGAGGACAGAAGGTCACAGCTGTCCGCTTT
Response: 4.26

Query: # iterate: TCTCGCAGGCCAGAGGGTCACTCAAGAGGTACGG
Response: 2.75

Query: # iterate: TCTGCTAGGACAACGATGGTCAGCTAATCTGCTA
Response: -0.669

Query: # iterate: TCGAGTAGGTTAGTCGGGGCAGTCAGCCAACATA
Response: 0.699

Query: # iterate: TCATATAGGTAAATGCTAGATGAAAGTCCGATCT
Response: -0.248

Query: # iterate: CCTGGTTGGTCAGGAGGTCACACACCGGATATGA
Response: 4.02

Query: # iterate: CGAACGAGGGCGTGAGTTGATAGCAAATGCCGAT
Response: -0.277

Query: # iterate: TTACCAAGGTGAAGGTCATTGATCCCTCTGTAGA
Response: 3.83

Query: # iterate: ACAGACATGTGATGAAGGTAACTCAGGCTATCAT
Response: -0.417

Query: # iterate: AGCATGAGGTTAAGATCAGGGAAACAGAATACAT
Response: 0.891

Query: # iterate: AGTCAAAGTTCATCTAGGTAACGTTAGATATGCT
Response: 3.74

Query: # iterate: CGTCCAAGGTCATAGGAGCTCAGTGAAGACAGAT
Response: 3.58

Query: # iterate: CCTACTGTGCCACGAAAGGTCATTGATTCAGTGA
Response: 4.67

Query: # iterate: CGAGCTAGGTCATCCAGGACAGTGAATACATTGA
Response: 3.01

Query: # iterate: CATACAGGGTCTGCTAGGCCAGAGTAGGGACGGC
Response: -0.0672

Query: # iterate: CCGAGTAGGTTCTGGGGCATTCAGGCAACGGTGA
Response: 0.469

----------
- Tested on: RXRa homodimer (NR concentration 180 nM)
- test: PBM binding z-score (relative to random genomic background probes); higher = stronger binding; sequences stand for … in GC…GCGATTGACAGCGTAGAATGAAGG
PBM binding z-score of 4 or higher: Yes. Under 4: No.

Query: Decide: PBM binding z-score of AGGCAAAGTTCAGGACGAGGTAACGTAAAGCACG >= 4?
Response: No

Query: # iterate: CCTACTGGGGCAAAAAGGTCATTGATGCCGATAA
Response: Yes

Query: # iterate: GCTAGCGGGCCATTTGGGTCACTCAATGACGGGC
Response: No

Query: # iterate: GCTAGTAGGCCATTTGGGTCACTCAATGACGGGC
Response: No

Query: # iterate: CGTCCAAGGTCAATGCTAGGTCAGTGCAAGCATT
Response: Yes

Query: # iterate: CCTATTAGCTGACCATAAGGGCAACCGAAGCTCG
Response: No

Query: # iterate: CCGACTGGGGCAGAAAGGTTACAATACCATCCGG
Response: No

Query: # iterate: CATTCAGGGTCAGCTAGGCCAGAGTAGGGACGGC
Response: Yes

Query: # iterate: ACTCGGAGGACAAAGGCCAGAGCTACGCCAGTGA
Response: No

Query: # iterate: CCTTATGGGTCAAGGTTATAGCACGGGTGGTACG
Response: No

Query: # iterate: CCGACTGGGGCCTAAGGTTACCATAAGCCAGCCC
Response: No

Query: # iterate: CCAGACAGGTGAGACGGTAACTCAGCCTCGATTA
Response: No

Query: # iterate: CGAACTAGGTCATTGACAGAACAGTGAATAGTAA
Response: No

Query: # iterate: TCGAGTAGGTTAGTCGGGGCATTAAGCCAACATA
Response: No

Query: # iterate: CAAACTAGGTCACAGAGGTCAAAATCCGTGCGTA
Response: Yes

Query: # iterate: ATATGTAGGTCACATCCGGGTCATTCAGGCTATG
Response: Yes

Query: # iterate: AGTCAAAGTTCAGGACGAGGTAACGAAAAGCACG
Response: No

Query: # iterate: AATCAAAGTTCATCTAGGTAACGTAAGATATGCT
Response: Yes

Query: # iterate: TAGCCTACGTCATGCGGGCCAGTATAGTGTCGGC
Response: No

Query: # iterate: CGAACTGGGTCATCCAGGACAGTGAATACATTGA
Response: No

Query: # iterate: CGTCCAAGGTCAAGGTCGGTGAAAGAGACTCGAA
Response: Yes

Query: # iterate: GCTTACGGGTCAAAGGTTATACCATGAATAGAAT
Response: Yes

Query: # iterate: AGAACGAGGGCAATGAGTTGATAGAACGGGTGGC
Response: No

Query: # iterate: ACTAGCAGGCCAAGTTTGCGTCACTCAAACAAAG
Response: No

Query: # iterate: GGAACGAGGGCATTCGAGTGGATAGCATGGCGAT
Response: No

Query: # iterate: CAGCCTAGGTCAGTGCCAGTATAGGAGGAACGTT
Response: No

Query: # iterate: TCTTGTAGATCAACAGGAGGTTAACAAAGATCGA
Response: No

Query: # iterate: CCTCGTAGGACAACAGGAGGTCAGAGCTGCCAGA
Response: No

Query: # iterate: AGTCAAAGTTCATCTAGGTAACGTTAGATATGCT
Response: Yes

Query: # iterate: CGTCAATGTTCAAGGTAACGTAACAGAAAGCAGC
Response: No

Query: # iterate: CCTAGCAGGCCAATCTGGGTCCCTCAAGGCTTGA
Response: No
